test system: MYB mRNA; assay: RT-qPCR splicing assay, MYB mRNA canonical (CJ) and alternative (AJ) junction; assay type: cell-based, human; settings: Homo sapiens, MYB canonical junction mRNA, RT-qPCR; read-out: MYB CJ (decrease in CJ mRNA levels, IC50)
pIC50: −log10 of the molar value.
observable: pIC50

Query :: Query: pIC50; subject: C[C@@H]1CN(c2ccc3nc(-c4cc5cn(C)nc5c(F)c4O)ncc3c2)C[C@@H](C)N1 [Compound 745]
Result :: > 7.00

Query :: Using the record for CCN[C@@H]1CCN(c2ccc3nc(-c4cc5cn(C)nc5cc4O)ccc3n2)C1 [Compound 180] , report its pIC50.
Result :: > 7.00

Query :: Item CN1CCC(N(C)c2ccc3nc(-c4cc5cn(C)nc5cc4O)ccc3n2)CC1 [Compound 126] has what recorded pIC50?
Result :: 6.00 to 7.00

Query :: Could you tell me which pIC50 is on file for Cc1nc2c(C)c(O)c(-c3ccc4nc(N5CC[C@@H](NC6(C)CC6)C5)ccc4n3)cc2o1 (single isomer, unassigned) [Compound 310] ?
Result :: > 7.00

Query :: Consider the compound Cc1c(O)c(-c2nc(C(=O)O)c3cc(N4CCNCC4)ccc3n2)cc2cn(C)nc12 [Compound 524] and give its measured pIC50.
Result :: < 5.00

Next:
Query :: Tell me the measured pIC50 of Cc1nc2cc(O)c(-c3ccc4nc(N5CC[C@@H](NC(C)(C)C)C5)ccc4n3)cc2o1 [Compound 210] , please.
Result :: 5.00 to 6.00

Query :: Fill blank: measured pIC50 of the compound CN[C@@H]1CCN(c2ccc3nc(-c4cc(F)c5nc(C)cn5c4)ncc3n2)C1 [Compound 331] is ____.
Result :: > 7.00

Query :: Param item = Cc1nc2c(F)c(O)c(-c3ccc4nc(N5CC[C@H](NC(C)(C)C)C5)ccc4n3)cc2o1 [Compound 255] ; retrieve measured pIC50.
Result :: > 7.00

###

test system: HTT mRNA; test: RT-qPCR splicing assay, HTT mRNA canonical (CJ) and alternative (AJ) junction; type: cell-based, human; conditions: Homo sapiens, HTT canonical junction mRNA, RT-qPCR; read-out: HTT CJ (decrease in CJ mRNA levels, IC50)
observable: IC50

Answered cases to consult:
Query :: Recorded IC50 for CN[C@H]1CCN(c2ccc3nc(-c4cc(F)c5nc(C)cn5c4)ncc3n2)C1 [Compound 332] with HTT mRNA, please?
Result :: 100 to 1000 nM

Query :: For the record C[C@@H]1CN(c2ccc3nc(-c4cc5cn(C)nc5c(F)c4O)nc(C(=O)NCCO)c3c2)C[C@H](C)N1 [Compound 737] , what value of IC50 is listed for HTT mRNA?
Result :: 1000 to 10000 nM

Query :: Observed IC50 on HTT mRNA for Cc1nc2cc(O)c(-c3ccc4nc(N5CCC(NC6CCC6)C5)ccc4n3)cc2o1 (stereo not shown) [Compound 228] , please.
Result :: < 100 nM

Now let's try a different one.
Query :: Please provide the recorded IC50 for Cn1cc2cc(-c3ccc4nc(C5CCNCC5)ccc4n3)ccc2n1 [Compound 184] , tested on HTT mRNA.
Result :: 100 to 1000 nM

###

Entries and their IC50
system: HTT mRNA; assay: RT-qPCR splicing assay, HTT mRNA canonical (CJ) and alternative (AJ) junction; format: cell-based, human; details: Homo sapiens, RT-qPCR, HTT canonical junction mRNA decrease; read-out: HTT CJ (decrease in canonical junction mRNA, IC50)

Query :: # get_value(readout='IC50', item= C[C@@H]1CN(c2ccc3nc(-c4cc5cn(C)nc5cc4O)ncc3c2)CC2(CC2)N1 (single isomer, unassigned) )
Result :: > 10 µM

From here, focus on the item given below.
Query :: Can you share its IC50? I mean this molecule: C[C@@H]1CN(c2ccc3nc(-c4cc5cn(C)nc5cc4O)nc(C(N)=O)c3c2)C[C@H](C)N1 [Compound 785, 2,2,2-trifluoroacetate]
Result :: 1 to 10 µM

###

system: HTT mRNA; experiment: RT-qPCR splicing assay, HTT mRNA canonical (CJ) and alternative (AJ) junction; type: cell-based, human; conditions: Homo sapiens, HTT canonical junction mRNA, RT-qPCR; read-out: HTT CJ (decrease in CJ mRNA levels, IC50)
pIC50: −log10 of the molar value.
observable: pIC50

Query :: What value of pIC50 has been recorded for this entry: Cc1cn2cc(-c3ccc4nc(N5CCC(NC(C)(C)C)C5)ccc4n3)cc(C)c2n1 (stereo not drawn) [Compound 201]
Result :: 6.00 to 7.00

Query :: What pIC50 value was documented for this molecule, Cc1nc2cc(O)c(-c3ccc4nc(N5CC[C@@H](NC(C)C)C5)ccc4n3)cc2o1 [Compound 232] ?
Result :: > 7.00

More entries:
Query :: Param item = Cn1cc2cc(-c3ccc4nc(N5CCC56CCCNC6)ccc4n3)c(O)cc2n1 (stereo not drawn) [Compound 163] ; retrieve measured pIC50.
Result :: < 5.00

Query :: pIC50 lookup needed for CNC(=O)c1nc(-c2cc3cn(C)nc3c(F)c2O)nc2ccc(N3C[C@H](C)N[C@@H](C)C3)cc12 (single isomer, unassigned) [Compound 669] , thanks.
Result :: 6.00 to 7.00

Query :: Which measured pIC50 value corresponds to Cn1cc2cc(-c3ccc4nc(N5CC[C@H](NC6CCC6)C5)ccc4n3)c(O)c(F)c2n1 (single isomer, unassigned) [Compound 317] ?
Result :: > 7.00

###

system: HTT mRNA; assay: RT-qPCR splicing assay, HTT mRNA canonical (CJ) and alternative (AJ) junction; format: cell-based, human; conditions: Homo sapiens, HTT canonical junction mRNA, RT-qPCR; read-out: HTT CJ (decrease in CJ mRNA levels, IC50)
observable: IC50

# annotated cases, reported IC50 shown
Query :: Bench note: what IC50 did Cn1cc2cc(-c3ccc4nc(N5CC[C@]67CCN[C@H]6CC[C@H]57)ccc4n3)c(O)cc2n1 [Compound 160] show?
Result :: 100 to 1000 nM

Query :: What measured IC50 goes with Cc1c(O)c(-c2ccc3nc(N4CCC(NC(C)C)C4)ccc3n2)cc2cn(C)nc12 (stereo not shown) [Compound 318] ?
Result :: < 100 nM

Query :: Bench note: what IC50 did Cc1c(O)c(-c2ncc3cc(N4C[C@@H](C)N[C@@H](C)C4)ccc3n2)cc2cn(C)nc12 [Compound 525] show?
Result :: 100 to 1000 nM

Query :: Which IC50 value belongs to Cc1cn2nc(-c3ccc4nc(C5CCNCC5)ccc4n3)c(O)c2c(C)n1 [Compound 150] ?
Result :: < 100 nM

Query :: What measured IC50 goes with Cn1cc2cc(-c3ccc4nc(N5CC[C@@H](NC6CC(F)(F)C6)C5)ccc4n3)c(O)cc2n1 [Compound 385] ?
Result :: < 100 nM

Query :: Bench note: what IC50 did Cc1c(O)c(-c2nc(C(=O)O)c3cc(N4CCNCC4)ccc3n2)cc2cn(C)nc12 [Compound 524] show?
Result :: > 10000 nM

Query :: Given the entry Cc1nc2cc(O)c(-c3ccc4nc(N5CC[C@@H](NC6CC6)C5)ccc4n3)cc2o1 [Compound 212] , report its measured IC50.
Result :: < 100 nM

Query :: What does the data say about its IC50? Entry: Cn1cc2cc(-c3ccc4nc(N5CCNCC5)ccc4n3)c(O)cc2n1 [Compound 136]
Result :: 1000 to 10000 nM

Further cases:
Query :: Request the reported IC50 associated with Cc1nc2cc(O)c(-c3ccc4nc(N5CC[C@H](NC6CCC6)C5)ccc4n3)cc2o1 [Compound 230]
Result :: < 100 nM

Query :: Field request: IC50 | item: Cc1c(O)c(-c2nc(C(=O)NC(C)C)c3cc(N4C[C@@H](C)N[C@@H](C)C4)ccc3n2)cc2cn(C)nc12 [Compound 539]
Result :: < 100 nM

Query :: // IC50 lookup, key: Cc1cc2nc(-c3cc4cn(C)nc4c(C)c3O)cc(Cl)c2cc1N1CCNCC1 [Compound 484]
Result :: > 10000 nM

Query :: What IC50 value was documented for this molecule, Cn1cc2cc(-c3ccc4cc(C5CCNCC5)ccc4n3)c(O)cc2n1 [Compound 109] ?
Result :: < 100 nM

Query :: Which IC50 is listed for Cc1nc2c(C)c(O)c(-c3ccc4nc(N5CC[C@H](NC6CCC6)C5)ccc4n3)cc2o1 [Compound 237] ?
Result :: < 100 nM

Query :: Consider the molecule Cn1cc2cc(-c3ccc4nc(N5CC[C@@H](NC6(C)CC6)C5)ccc4n3)c(O)cc2n1 [Compound 220] and give its measured IC50.
Result :: < 100 nM

Query :: Requested read-out: IC50. Entry: Cn1cc2cc(-c3ccc4nc(N5CC[C@@H](NC(C)(C)C)C5)ccc4n3)c(O)c(F)c2n1 (single isomer, unassigned) [Compound 391]
Result :: < 100 nM

Query :: Tell me the measured IC50 of CN[C@@H]1CCN(c2ccc3nc(-c4cc(C#N)c5nc(C)cn5c4)ncc3n2)C1 [Compound 407] , please.
Result :: 100 to 1000 nM
